Tested on: HOP-92 NSCLC
method_notes: NCI tumour cell line growth inhibition, 48 h
For each record, write down the corresponding TGI.

For the compound shown here, COc1cccc2cc(C(C)=O)c(=O)oc12 , give the reported TGI.
> 100 µM

For the compound shown here, O=C(O)c1ccc(Nc2nc3cc(C(F)(F)F)ccc3n3cccc23)cc1 , give the reported TGI.
> 100 µM

For the compound shown here, Cc1ccc(-c2nc([P+](c3ccccc3)(c3ccccc3)c3ccccc3)c(Nc3ccccc3)o2)cc1 , give the reported TGI.
1.16 µM

For the compound shown here, Cc1cn(-c2ccc(S(C)(=O)=O)cc2)c(-c2ccc(Cl)cc2)n1 , give the reported TGI.
> 100 µM

For the compound shown here, CCCC1(CCC)c2cc(/C=N\O)ccc2-c2ccc(-c3ccc(C(C)(C)C)cc3)cc21 , give the reported TGI.
> 100 µM
